Test system: ISC-enriched organoids
EXPERIMENTAL_PROTOCOL: Primary screen, 384-well 2.5-D organoid differentiation (ENR+CD, 6 days, Target Selective Inhibitor Library, vs whole-plate median): ATP (CellTiter-Glo 3D, CTG)
SETTINGS: Dose 0.40 uM; primary screen
Structures can show the parent of a compound that is named as a salt.
QUANTITY_MEASURED: Z.CTG (standard z score)
Returns: the value as a bare number; no unit string appended.

// query Give ISC-enriched organoids Z.CTG (standard z score) for "CNC(=O)c1ccc2cc([C@@]3(O)CCn4cncc43)ccc2c1"
// result −0.056

// query Give ISC-enriched organoids Z.CTG (standard z score) for C[S+]([O-])c1ccc(-c2nc(-c3ccc(F)cc3)c(-c3ccncc3)[nH]2)cc1 (centres unmarked)
// result 0.356

// query Give ISC-enriched organoids Z.CTG (standard z score) for "COc1cc(OC)c(/C=C/S(=O)(=O)Cc2ccc(OC)c(NCC(=O)O)c2)c(OC)c1"
// result −3.069

// query Give ISC-enriched organoids Z.CTG (standard z score) for Nc1ccc(C(=O)[O-])c(O)c1.[Na+] [Sodium 4-Aminosalicylate]
// result 0.488

// query Give ISC-enriched organoids Z.CTG (standard z score) for "Cc1cn([C@H]2C=C[C@@H](CO)O2)c(=O)[nH]c1=O"
// result 0.351

// query Give ISC-enriched organoids Z.CTG (standard z score) for "Cn1cnc2c(F)c(Nc3ccc(Br)cc3Cl)c(C(=O)NOCCO)cc21"
// result −0.395

// query Give ISC-enriched organoids Z.CTG (standard z score) for "CCC(=O)NCC[C@@H]1CCc2ccc3c(c21)CCO3"
// result 0.369

// query Give ISC-enriched organoids Z.CTG (standard z score) for "O=C(NNc1nc2cc(F)ccc2n2cccc12)c1cnccn1"
// result 0.309

// query Give ISC-enriched organoids Z.CTG (standard z score) for "Cc1cc(NC(=O)Nc2ccc(N(C)C)cc2)c2cc(F)cc(F)c2n1"
// result 0.799

// query Give ISC-enriched organoids Z.CTG (standard z score) for "Cc1cc(Nc2ccc(NC(=O)c3ccc(Nc4ccnc5ccccc45)cc3)cc2)nc(N)n1"
// result 0.712

// query Give ISC-enriched organoids Z.CTG (standard z score) for "CNC(=C[N+](=O)[O-])NCCSCc1ccc(CN(C)C)o1"
// result 0.370

// query Give ISC-enriched organoids Z.CTG (standard z score) for C#CCN[C@@H]1CCc2ccccc21 [Rasagiline Mesylate]
// result 0.246

// query Give ISC-enriched organoids Z.CTG (standard z score) for CC(NC(=O)c1ccccc1/N=C/c1c(O)ccc2ccccc12)c1ccccc1 (centres unmarked)
// result 0.022

// query Give ISC-enriched organoids Z.CTG (standard z score) for "Oc1c2ccccc2c2c3c(cccc13)N=N2"
// result 0.347

// query Give ISC-enriched organoids Z.CTG (standard z score) for C[C@H](NCc1ccc(OCc2cccc(F)c2)cc1)C(N)=O [Safinamide Mesylate]
// result 0.575

// query Give ISC-enriched organoids Z.CTG (standard z score) for "Oc1ccc(Nc2nc(-c3ccc(Cl)cc3)cs2)cc1"
// result 0.531

// query Give ISC-enriched organoids Z.CTG (standard z score) for "CCCc1nc2c(C)cc(-c3nc4ccccc4n3C)cc2n1Cc1ccc(-c2ccccc2C(=O)O)cc1"
// result 0.584

// query Give ISC-enriched organoids Z.CTG (standard z score) for "N#CSc1cc(SC#N)c(N)nc1N"
// result 0.266

// query Give ISC-enriched organoids Z.CTG (standard z score) for "COc1cc2c(cc1OC)[C@@H]1Cc3ccc(OC)c(OC)c3CN1CC2"
// result 0.818

// query Give ISC-enriched organoids Z.CTG (standard z score) for "COc1ccc(C(=O)Nc2sc3c(c2C(N)=O)CCCC3)cc1OC"
// result 0.598

----------
Test system: ISC-enriched organoids
EXPERIMENTAL_PROTOCOL: Primary screen, 384-well 2.5-D organoid differentiation (ENR+CD, 6 days): carbachol-induced lysozyme secretion (LYZ.S)
Format: cell-based, murine
SETTINGS: Dose 2.00 uM; primary screen, FC vs plate median
Please note: 1 applies when Dose.FC.LYZ.S is -0.01 log 2 fold change or greater, and -1 applies otherwise.

// query Please check the record "Oc1ccc2ccccc2c1SSc1c(O)ccc2ccccc12" and state if its Dose.FC.LYZ.S is at or above -0.01 log 2 fold change.
// result 1

// query Please check the record Cc1ccc(C(=O)N(CCCN)[C@@H](c2nc3cc(Cl)ccc3c(=O)n2Cc2ccccc2)C(C)C)cc1 [Ispinesib (SB-715992)] and state if its Dose.FC.LYZ.S is at or above -0.01 log 2 fold change.
// result -1

// query Please check the record "S=C=Nc1cccc(NC(=S)NCCCCNC(=S)Nc2cccc(N=C=S)c2)c1" and state if its Dose.FC.LYZ.S is at or above -0.01 log 2 fold change.
// result 1

// query Please check the record "C#Cc1cccc(Nc2ncnc3cc(OCCOC)c(OCCO)cc23)c1" and state if its Dose.FC.LYZ.S is at or above -0.01 log 2 fold change.
// result -1

// query Please check the record "C[C@]1(O)C[C@@H](c2nc(-c3ccc4ccc(-c5ccccc5)nc4c3)c3c(N)nccn32)C1" and state if its Dose.FC.LYZ.S is at or above -0.01 log 2 fold change.
// result -1

// query Please check the record "COc1ccc(-c2cnc3c(-c4cccc5ncccc45)cnn3c2)cc1" and state if its Dose.FC.LYZ.S is at or above -0.01 log 2 fold change.
// result 1

// query Please check the record CCCC(C)NC(=O)c1ccc(Cl)c(Cl)c1 (stereo not drawn) and state if its Dose.FC.LYZ.S is at or above -0.01 log 2 fold change.
// result 1

// query Please check the record "CC(C)c1onc(-c2c(Cl)cccc2Cl)c1COc1ccc(/C=C/c2cccc(C(=O)O)c2)c(Cl)c1" and state if its Dose.FC.LYZ.S is at or above -0.01 log 2 fold change.
// result 1

----------
Test system: ISC-enriched organoids
EXPERIMENTAL_PROTOCOL: Primary screen, 384-well 2.5-D organoid differentiation (ENR+CD, 6 days): basal lysozyme secretion (LYZ.NS)
Type: cell-based, murine
SETTINGS: Dose 2.00 uM; primary screen, FC vs plate median
Provide the reported Dose.FC.LYZ.NS of each item.

// query Give ISC-enriched organoids Dose.FC.LYZ.NS for O=C(NCCN1CCOCC1)c1ccc(Cl)cc1 [Moclobemide (Ro 111163)]
// result 0.001 log 2 fold change

// query Give ISC-enriched organoids Dose.FC.LYZ.NS for CN1C(=O)C(Cc2c[nH]c3ccccc23)NC1=S (centres unmarked)
// result 0.154 log 2 fold change

// query Give ISC-enriched organoids Dose.FC.LYZ.NS for "CCCC(=O)Nc1cccc(NC(=O)c2ccccc2Br)c1"
// result 0.037 log 2 fold change

// query Give ISC-enriched organoids Dose.FC.LYZ.NS for "CCn1c(-c2nonc2N)nc2c(C#CC(C)(C)O)ncc(OC[C@H]3CCCNC3)c21"
// result 0.122 log 2 fold change

// query Give ISC-enriched organoids Dose.FC.LYZ.NS for "O=C(/C=C\n1cnc(-c2cc(C(F)(F)F)cc(C(F)(F)F)c2)n1)N1CC(F)(F)C1"
// result −0.224 log 2 fold change

// query Give ISC-enriched organoids Dose.FC.LYZ.NS for CC(=O)O[C@H]1C[C@@H]2CC[C@@H]3[C@H](CC[C@@]4(C)[C@H]3C[C@H]([N+]3(C)CCCCC3)[C@@H]4OC(C)=O)[C@@]2(C)C[C@@H]1[N+]1(C)CCCCC1.[Br-].[Br-] [Pancuronium dibromide]
// result 0.093 log 2 fold change

// query Give ISC-enriched organoids Dose.FC.LYZ.NS for "O=C(NNc1ccccc1)c1ccncc1"
// result −0.107 log 2 fold change

// query Give ISC-enriched organoids Dose.FC.LYZ.NS for "CC(C)(C)n1nc(-c2ccc(Cl)cc2)c2c(N)ncnc21"
// result 0.270 log 2 fold change

// query Give ISC-enriched organoids Dose.FC.LYZ.NS for "FC(F)(F)c1ccc(/C=C/c2nc(COc3ccc(CCCCn4ccnn4)cc3)co2)cc1"
// result −0.224 log 2 fold change

// query Give ISC-enriched organoids Dose.FC.LYZ.NS for "C=CCc1cccc(/C=N/NC(=O)CN2CCN(Cc3ccccc3)CC2)c1O"
// result 0.126 log 2 fold change

// query Give ISC-enriched organoids Dose.FC.LYZ.NS for "CC(C)c1ccc(NC(=O)Cn2cnc3c2c(=O)n(C)c(=O)n3C)cc1"
// result −0.007 log 2 fold change

// query Give ISC-enriched organoids Dose.FC.LYZ.NS for Fc1cc(F)c2c(c1)[C@H]1C=CC[C@H]1C(c1cccnc1)N2 (mixture of isomers) [Golgicide A]
// result 0.171 log 2 fold change

// query Give ISC-enriched organoids Dose.FC.LYZ.NS for "CCc1c(C(=O)NCCc2ccc(N3CCCCC3)cc2)[nH]c2ccc(Cl)cc12"
// result 0.078 log 2 fold change

// query Give ISC-enriched organoids Dose.FC.LYZ.NS for "CCCCc1nc(Cl)c(CO)n1Cc1ccc(-c2ccccc2-c2nnn[n-]2)cc1.[K+]"
// result −0.042 log 2 fold change

// query Give ISC-enriched organoids Dose.FC.LYZ.NS for "Cc1cc(SCc2sc(-c3ccc(C(F)(F)F)c(F)c3)nc2C)ccc1OCC(=O)O"
// result 0.026 log 2 fold change

// query Give ISC-enriched organoids Dose.FC.LYZ.NS for Cl.Cl.O=S(=O)(NCCNC/C=C/c1ccc(Br)cc1)c1cccc2cnccc12 [H 89 2HCl]
// result 0.086 log 2 fold change

// query Give ISC-enriched organoids Dose.FC.LYZ.NS for "COc1cc(OC)c(NC(=O)Nc2cc(C)on2)cc1Cl"
// result 0.068 log 2 fold change
